# Test system: K-562 leukemia
# protocol_notes: NCI tumour cell line growth inhibition, 48 h
measurement_name: TGI

[[record]]
molecule = "N#C/C(=C1C=C/C(=N/O)C(Br)=C/1)c1ccccc1"
recorded_result = "12.6 µM"

[[record]]
molecule = "C#CCCCCC#Cc1ccccc1C(=O)OC"
recorded_result = "67.4 µM"

[[record]]
molecule = "CC(=O)Nc1ccccc1Sc1ccccc1"
recorded_result = "> 100 µM"

[[record]]
molecule = "CCOC(=O)C1Cc2[nH]c3ccccc3c2C(C)C1C (configuration not stated)"
recorded_result = "> 100 µM"

[[record]]
molecule = "N.N.N.O=[N+]([O-])[O-].O=[N+]([O-])[O-].O=[N+]([O-])[O-].O=[N+]([O-])[O-].[Co+3]"
recorded_result = "> 100 µM"

[[record]]
molecule = "Clc1ccc(C2N3CCCCC3[C@@H]3c4[nH]c5ccccc5c4CCN23)cc1 (some centres not stated)"
recorded_result = "> 100 µM"

[[record]]
molecule = "COC(=O)C1C(C(=O)OC)N(Cc2ccccc2)C(=O)N1Cc1ccccc1 (configuration not stated)"
recorded_result = "> 100 µM"

[[record]]
molecule = "OCC1CCCCCCCCCCC12SCCCS2 (configuration not stated)"
recorded_result = "> 100 µM"

[[record]]
molecule = "CNC(=O)OCc1c(COC(=O)NC)c(-c2ccc(Cl)c(Cl)c2)n2c1SCC2"
recorded_result = "52 µM"

[[record]]
molecule = "CN(C)CCNc1cc(-c2ccccc2)nc2ccccc12"
recorded_result = "12.3 µM"

[[record]]
molecule = "CCOC(=O)CNC(=O)C(CSCc1ccc(Br)cc1)NC(=O)CCC(N)C(=O)OCC (configuration not stated)"
recorded_result = "> 50 µM"

[[record]]
molecule = "Cc1ccc(CS/C(=C\\c2ccc([N+](=O)[O-])cc2)C(=O)c2ccc(F)cc2)cc1"
recorded_result = "> 100 µM"

[[record]]
molecule = "Nc1ccc2nc(-c3ccccn3)c(-c3ccccn3)nc2c1"
recorded_result = "> 100 µM"

[[record]]
molecule = "CC(C)Sc1nc(C#N)cc2c1CCCC2"
recorded_result = "> 100 µM"

[[record]]
molecule = "CC1(Cl)C(=O)NC(=O)N(C2CC(N=[N+]=[N-])C(CO)O2)C1N=[N+]=[N-] (configuration not stated)"
recorded_result = "> 100 µM"

[[record]]
molecule = "COc1ccc(C(C#N)NNC(=O)c2ccccc2O)cc1OC (configuration not stated)"
recorded_result = "> 100 µM"

[[record]]
molecule = "COC(=O)C(=O)C(C(=O)C=C(C)C)C(=O)C(=O)Nc1cc(C(F)(F)F)ccc1Cl (configuration not stated)"
recorded_result = "> 100 µM"

[[record]]
molecule = "O=[N+]([O-])/C=C\\c1ccc(Cl)c(Cl)c1"
recorded_result = "5.08 µM"

[[record]]
molecule = "COc1cc(-c2cc(=O)c3cc4c(cc3[nH]2)OCO4)cc(OC)c1O"
recorded_result = "> 10 µM"

[[record]]
molecule = "COc1cccc(/C=N/NC(=O)c2ccccc2Nc2ccnc(C(F)(F)F)c2)c1O"
recorded_result = "12.3 µM"

[[record]]
molecule = "O=C(Nc1ccc(N2CCNCC2)cc1)c1[nH]ncc1Nc1cc(Oc2ccccc2)ncn1"
recorded_result = "10.9 µM"

[[record]]
molecule = "COc1ccc(OC)c(NC(=O)C(=O)C(C(C)=O)c2nc3ccc(Cl)cc3[nH]c2=O)c1 (configuration not stated)"
recorded_result = "> 50 µM"

[[record]]
molecule = "N#CSCC1CC(O)(c2ccccc2)C(c2ccccc2)C(c2ccc(Cl)cc2)O1 (configuration not stated)"
recorded_result = "5.42 µM"

[[record]]
molecule = "Cc1cc(I)cc(CNCCCN2CCSCC2)c1O"
recorded_result = "26.1 µM"

[[record]]
molecule = "Cc1ccc(C(=O)Nc2ccc(CP(=O)(O)O)cc2CP(=O)(O)O)cc1NC(=O)c1cccc(N)c1"
recorded_result = "> 100 µM"

[[record]]
molecule = "Cc1ccc(S(=O)(=O)N(CCOc2ccc(/C(N)=N/Cl)cc2)CCOc2ccc(/C(N)=N\\Cl)cc2)cc1"
recorded_result = "24 µM"

[[record]]
molecule = "COc1cc2c(cc1OC)C1=Cc3cc(OC)c(OC)cc3C(C)N1C=C2 (configuration not stated)"
recorded_result = "> 100 µM"

[[record]]
molecule = "O=C1NNC=Nc2ccc(cc2)S(=O)(=O)c2ccc(cc2)N=CNNC1=O"
recorded_result = "> 100 µM"

[[record]]
molecule = "CCCCCCCCCCCC(=O)CC(=O)c1c(O)cccc1O"
recorded_result = "76.4 µM"

[[record]]
molecule = "COc1ccccc1N/C(=C\\C(=O)C(=O)NC12CC3CC(CC(C3)C1)C2)c1ccccc1"
recorded_result = "> 10 µM"

[[record]]
molecule = "COc1ccc(CNc2cc(OC)c(OC)c(OC)c2)cc1"
recorded_result = "> 44.4 µM"

[[record]]
molecule = "O=C(NCCOCCOCCNc1cccc2c1C(=O)N(C1CCCNC1=O)C2=O)c1cc2c(o1)C(=O)c1ccccc1C2=O (configuration not stated)"
recorded_result = "11.1 µM"


----------
# System: OVCAR-8 ovarian
# protocol_notes: NCI tumour cell line growth inhibition, 48 h
measurement_name: GI50

[[record]]
compound = "CC1OC(O[C@H]2C[C@@H](O)[C@]3(CO)[C@H]4[C@H](O)C[C@]5(C)[C@@H](C6=CC(=O)OC6)CC[C@]5(O)[C@@H]4CC[C@]3(O)C2)C(O)C(O)C1O (some centres undefined)"
measurement_name = "GI50"
recorded_result = "19.2 µM"

[[record]]
compound = "CCCCC(=O)OCC1OC(n2cnc3c(=S)nc[nH]c32)C(OC(=O)CCCC)C1OC(=O)CCCC (centres undefined)"
measurement_name = "GI50"
recorded_result = "3.05 µM"

[[record]]
compound = "Cn1cc(-c2cnc3ccc(NC(=O)Nc4ccc(F)c(Br)c4)cc3n2)cn1"
measurement_name = "GI50"
recorded_result = "1.83 µM"

[[record]]
compound = "CSc1ccc(C2=NN(C(C)=O)C(c3cc(C)cs3)C2)cc1 (centres undefined)"
measurement_name = "GI50"
recorded_result = "32 µM"

[[record]]
compound = "COc1cc2c3c(n(C)c(=O)c2cc1OC)-c1cc2c(cc1/C3=C\\CCCN1C(=O)c3ccccc3C1=O)OCO2"
measurement_name = "GI50"
recorded_result = "23.8 µM"

[[record]]
compound = "N#C/C(=C1C=C/C(=N/O)C(Br)=C/1)c1ccccc1"
measurement_name = "GI50"
recorded_result = "2.61 µM"

[[record]]
compound = "C[C@]12CC[C@H](O)CC1=CC[C@@H]1[C@@H]2CC[C@]2(C)C(c3cccnc3)=CC[C@@H]12"
measurement_name = "GI50"
recorded_result = "29.5 µM"

[[record]]
compound = "O=C1c2c(c3c4ccccc4n(CCCCCCBr)c3c3[nH]c4ccccc4c23)C(=O)N1O"
measurement_name = "GI50"
recorded_result = "3.11 µM"

[[record]]
compound = "N#Cc1ccc(C#Cc2ccccc2C#CCCCCO)cc1"
measurement_name = "GI50"
recorded_result = "18.6 µM"


----------
# Test system: IGROV1 ovarian
# protocol_notes: NCI tumour cell line growth inhibition, 48 h
measurement_name: TGI

[[record]]
compound = "CC1=C(C(=O)Nc2ccc3[nH]ncc3c2)C(c2ccc3ccccc3c2)CC(=O)N1 (stereo unspecified)"
measurement_name = "TGI"
recorded_result = "> 25 µM"

[[record]]
compound = "COc1ccc(C(C#N)NNC(=O)c2ccccc2O)cc1OC (stereo unspecified)"
measurement_name = "TGI"
recorded_result = "> 100 µM"

[[record]]
compound = "CC1=C(O)C(=O)[C@@H]2O[C@@H]2C1=O"
measurement_name = "TGI"
recorded_result = "48.4 µM"

[[record]]
compound = "COC(=O)C1(C(=O)OC)CC2=C(S(=O)(=O)c3ccccc3)C[C@H](S(=O)(=O)c3ccccc3)[C@H]2C1"
measurement_name = "TGI"
recorded_result = "49.9 µM"

[[record]]
compound = "O=C(O)c1cc2c(cc1CC(Cc1ccc3c(c1)CCC3)C(=O)O)CCC2 (stereo unspecified)"
measurement_name = "TGI"
recorded_result = "> 100 µM"

[[record]]
compound = "Cn1cc(-c2cnc3ccc(NC(=O)Nc4ccc(F)c(Br)c4)cc3n2)cn1"
measurement_name = "TGI"
recorded_result = "3.49 µM"

[[record]]
compound = "CCc1c(Oc2ccc(C(C)=O)cc2)c2ccccc2[nH]c1=O"
measurement_name = "TGI"
recorded_result = "> 100 µM"

[[record]]
compound = "COCOC1/C=C/CCCCC2=C(C)C=C(C1)O2 (stereo unspecified)"
measurement_name = "TGI"
recorded_result = "> 100 µM"

[[record]]
compound = "COc1ccc2c(c1)c(-c1nc(-c3cn(C)c4ncccc34)cs1)cn2CCCN1CCCCC1"
measurement_name = "TGI"
recorded_result = "3.46 µM"

[[record]]
compound = "CCOc1cc(NC(C)=O)ccc1C(=O)NNC(=O)c1ccccc1OC(C)=O"
measurement_name = "TGI"
recorded_result = "> 100 µM"

[[record]]
compound = "CCCc1cc(=O)c2c(C)c3[nH]c4ccc(Cl)cc4c3c(C)c2[nH]1"
measurement_name = "TGI"
recorded_result = "4.7 µM"

[[record]]
compound = "O=C1NNC=Nc2ccc(cc2)S(=O)(=O)c2ccc(cc2)N=CNNC1=O"
measurement_name = "TGI"
recorded_result = "> 100 µM"

[[record]]
compound = "C=C(C)C12CC(COC(=O)c3ccccc3)C34OC5(OC1C3C1OC1(CO)C(O)C1(O)C(OC(=O)c3ccccc3)C(C)C(C(C)CCCCCCC5O)C14)O2 (stereo unspecified)"
measurement_name = "TGI"
recorded_result = "> 100 µM"

[[record]]
compound = "OCCC1(O)CCC(O)CC1 (stereo unspecified)"
measurement_name = "TGI"
recorded_result = "> 100 µM"

[[record]]
compound = "COC1C(CN[N+](=O)CC2OC3OC(C)(C)OC3C2OC)OC2OC(C)(C)OC21 (stereo unspecified)"
measurement_name = "TGI"
recorded_result = "> 100 µM"

[[record]]
compound = "C[C@]12CC[C@H](O)CC1=CC[C@@H]1[C@@H]2CC[C@]2(C)C(c3cccnc3)=CC[C@@H]12"
measurement_name = "TGI"
recorded_result = "> 100 µM"

[[record]]
compound = "CC(C)=CCOC(=O)C(C)=[N+]=[N-]"
measurement_name = "TGI"
recorded_result = "> 100 µM"

[[record]]
compound = "COC(=O)C(=O)C(C(=O)C=C(C)C)C(=O)C(=O)Nc1cc(C(F)(F)F)ccc1Cl (stereo unspecified)"
measurement_name = "TGI"
recorded_result = "> 100 µM"

[[record]]
compound = "Cc1c(-c2nc3ccccc3[nH]2)c(=O)n(-c2ccccc2)n1C"
measurement_name = "TGI"
recorded_result = "> 100 µM"

[[record]]
compound = "OCc1ccc2[n+](c1)CCC1c3ccccc3NC21 (stereo unspecified)"
measurement_name = "TGI"
recorded_result = "> 300 µM"

[[record]]
compound = "O=C1c2c(c3c4ccccc4n(CCCCCCBr)c3c3[nH]c4ccccc4c23)C(=O)N1O"
measurement_name = "TGI"
recorded_result = "9.38 µM"

